// data source = ChEMBL document CHEMBL1153955

For each entry below, report its EC50 value.
# Tested on: Influenza A virus H3N2
# Assay Overview: Antiviral activity against influenza H3N2 virus in MDCK cells assessed as reduction of virus-induced cytopathicity by visual cytopathic effect scoring method
# Assay type: functional, organism-based

Look over these answered cases.
>>> endpoint_value("Cc1cc(C)cc(S(=O)(=O)c2c(C(=O)NC(C)C(N)=O)[nH]c3ccc(Br)cc23)c1 (centres undefined)")
"> 800 µM"
>>> endpoint_value("Cc1cc(C)cc(S(=O)(=O)c2c(C(=O)NC(C)CS(N)(=O)=O)[nH]c3ccc([N+](=O)[O-])cc23)c1 (centres undefined)")
"> 4 µM"
>>> endpoint_value("Cc1cc(C)cc(S(=O)(=O)c2c(C(=O)NCCC(N)=O)[nH]c3ccc([N+](=O)[O-])cc23)c1")
"> 20 µM"
>>> endpoint_value("Cc1cc(C)cc(S(=O)(=O)c2c(C(=O)NCC(N)=O)[nH]c3ccc(Cl)cc23)c1")
"> 4 µM"
>>> endpoint_value("Cc1cc(C)cc(S(=O)(=O)c2c(C(=O)NNC(C)C)[nH]c3ccc(Cl)cc23)c1")
"> 20 µM"

// each compound listed below needs its EC50
1. Cc1cc(C)cc(S(=O)(=O)c2c(C(N)=O)[nH]c3ccc(Cl)cc23)c1
2. Cc1cc(C)cc(S(=O)(=O)c2c(C(=O)NCC(N)=O)[nH]c3ccc([N+](=O)[O-])cc23)c1

1. > 100 µM
2. > 20 µM

// each compound listed below needs its EC50
1. Cc1cc(C)cc(S(=O)(=O)c2c(C(=O)NCCS(N)(=O)=O)[nH]c3ccc(Br)cc23)c1
2. Cc1cc(C)cc(S(=O)(=O)c2c(C(=O)NC(C)CC(N)=O)[nH]c3ccc(Cl)cc23)c1 (centres undefined)

1. > 800 µM
2. > 4 µM

====

For each entry below, report its IC50 value.
# System Tested: Human immunodeficiency virus type 1 reverse transcriptase (Human immunodeficiency virus 1, UniProt Q72547, L100I)
# Assay Overview: Inhibition of HIV1 reverse transcriptase p66/p51 L100I mutant
# Protocol Conditions: read-out: IC50
One number for each entry, in nM.

Look over these answered cases.
>>> endpoint_value("Cc1cc(C)cc(S(=O)(=O)c2c(C(=O)NCC(N)=O)[nH]c3ccc(Cl)c(F)c23)c1")
319
>>> endpoint_value("Cc1cc(C)cc(S(=O)(=O)c2c(C(=O)NCCC(N)=O)[nH]c3ccc([N+](=O)[O-])cc23)c1")
204
>>> endpoint_value("Cc1cc(C)cc(S(=O)(=O)c2c(C(=O)NC(C)C(N)=O)[nH]c3ccc(Cl)c(F)c23)c1 (stereo not drawn)")
270
>>> endpoint_value("Cc1cc(C)cc(S(=O)(=O)c2c(C(=O)NC(C)CS(N)(=O)=O)[nH]c3ccc(Cl)c(F)c23)c1 (stereo not drawn)")
267
>>> endpoint_value("Cc1cc(C)cc(S(=O)(=O)c2c(C(=O)NCCC(N)=O)[nH]c3ccc(Cl)cc23)c1")
143

// each compound listed below needs its IC50
1. Cc1cc(C)cc(S(=O)(=O)c2c(C(=O)NCCS(N)(=O)=O)[nH]c3ccc(Br)cc23)c1
2. Cc1cc(C)cc(S(=O)(=O)c2c(C(=O)NC(C)CS(N)(=O)=O)[nH]c3ccc(Br)cc23)c1 (stereo not drawn)
3. Cc1cc(C)cc(S(=O)(=O)c2c(C(=O)NC(C)CS(N)(=O)=O)[nH]c3ccc([N+](=O)[O-])cc23)c1 (stereo not drawn)

1: 13; 2: 125; 3: 364
